The values you see were collected from patent US20250388582A1.

- Procedure summary: Microsomal metabolic stability assay
- Type: in vitro ADME, human or CD1 male mouse
- Condition details: Clint class; 1 μM compound, 0.5 mg/ml microsomes, NADPH, UDPGA, Alamethicin; species not given
- Method: The microsomal metabolic stability assay was performed using pooled human or CD1 male mouse interspecies microsomes. Supplemental cofactors (NADPH, UDPGA) and microsomal membrane pore-forming factor (Alamethicin) were added to promote cytochrome P450 (CYP), UGT reactivity to the target compound. […] The plate was then sealed, centrifuged (3000 rpm, 20 min, 4° C.), and the supernatant was analyzed by LC-MS/MS. […]
Outcome measure: Microsomal metabolic stability

Guide cases for Microsomal metabolic stability, answers given:
- Smiles data: "Cc1cccc(/C=N/Nc2nc(N3CCOCC3)nc3c2ncn3CC(=O)c2ccccn2)c1"
  Outcome measure: "Microsomal metabolic stability"
  Endpoint result: "Medium (Medium 8.8~48,)"
- Smiles data: "Cc1cccc(/C=N/Nc2nc(N3CCOCC3)nc3c2ncn3-c2ccnc(C)c2)c1"
  Outcome measure: "Microsomal metabolic stability"
  Endpoint result: "Medium (Medium 8.8~48,)"
- Smiles data: "COc1cc(-n2cnc3c(N/N=C/c4cccc(C)c4)nc(N4CCOCC4)nc32)ccn1"
  Outcome measure: "Microsomal metabolic stability"
  Endpoint result: "Low (Low <8.8,)"
- Smiles data: "Cc1cccc(/C=N/Nc2nc(N3CCOCC3)nc3c2ncn3-c2cccc(C)c2)c1"
  Outcome measure: "Microsomal metabolic stability"
  Endpoint result: "Low (Low <8.8,)"
- Smiles data: "Cc1cccc(/C=N/Nc2nc(N3CCOCC3)nc3c2ncn3-c2cccnc2C)c1"
  Outcome measure: "Microsomal metabolic stability"
  Endpoint result: "Medium (Medium 8.8~48,)"
- Smiles data: "Cc1cccc(/C=N/Nc2nc(N3CCOCC3)nc3c2ncn3-c2cccc(C)n2)c1"
  Outcome measure: "Microsomal metabolic stability"
  Endpoint result: "medium"
- Smiles data: "Cc1cccc(/C=N/n2cnc3c(Nc4ccncc4)nc(N4CCOCC4)nc32)c1"
  Outcome measure: "Microsomal metabolic stability"
  Endpoint result: "medium"
- Smiles data: "Cc1cccc(/C=N/Nc2nc(N3CCOCC3)nc3c2ncn3-c2cccc(F)c2)c1"
  Outcome measure: "Microsomal metabolic stability"
  Endpoint result: "Low (Low <8.8,)"
- Smiles data: "Cc1cccc(/C=N/Nc2nc(N3CCOCC3)nc3c2ncn3-c2cccc(C#N)c2)c1"
  Outcome measure: "Microsomal metabolic stability"
  Endpoint result: "Low (Low <8.8,)"
- Smiles data: "Cc1cccc(/C=N/Nc2nc(N3CCOCC3)nc3c2ncn3-c2cccc(OC(F)(F)F)c2)c1"
  Outcome measure: "Microsomal metabolic stability"
  Endpoint result: "Low (Low <8.8,)"

Q. Would you kindly share the measured Microsomal metabolic stability for Cc1cccc(-c2ccn(-c3nc(N4CCOCC4)nc4c3ncn4CC(=O)c3ccccn3)n2)c1 ?
A. Medium (Medium 8.8~48,)

Q. Would you kindly share the measured Microsomal metabolic stability for Cc1cccc(/C=N/Nc2nc(N3CCOCC3)nc3c2ncn3-c2cc(C)n(C)n2)c1 ?
A. Medium (Medium 8.8~48,)

Q. Would you kindly share the measured Microsomal metabolic stability for Cc1cccc(/C=N/Nc2nc(N3CCOCC3)nc3c2ncn3CC(=O)c2ccccc2C(F)(F)F)c1 ?
A. Medium (Medium 8.8~48,)

Q. Would you kindly share the measured Microsomal metabolic stability for Cc1cccc(/C=N/Nc2nc(N3CCOCC3)nc3c(-c4cccnc4)cccc23)c1 ?
A. Medium (Medium 8.8~48,)

Q. Would you kindly share the measured Microsomal metabolic stability for Cc1cccc(/C=N/Nc2nc(N3CCOCC3)nc3c2ncn3-c2cccnc2)c1 ?
A. Medium (Medium 8.8~48,)

Q. Would you kindly share the measured Microsomal metabolic stability for Cc1cccc(/C=N/Nc2nc(N3CCOCC3)nc3c(-c4cnn(C)c4)cccc23)c1 ?
A. medium

====

Entries and their IC50
- Target of assay: PIKFYVE (Homo sapiens)
- Procedure summary: NanoBRET TE Intracellular Kinase Assay, interaction of PIKFYVE and compounds in HEK293 cells
- Condition details: IC50 class from BRET; HEK293 cells expressing PIKFYVE-NanoLuc; 2 hours incubation
- Experimental: To predict the efficacy of the compounds according to Example on PIKFYVE in humans, the interaction between PIKFYVE and the compounds was tested using the HEK293 cell line derived from human embryonic kidney (ATCC, CRL-1573) via NanoBRETT TE Intracellular Kinase Assay Service of Carna biosciences Inc., (Japan). The evaluation method provided by Carna biosciences Inc., was shown below and the NanoBRET™ TE Intracellular Kinase Assay, K-8 Kit (Promega, CS1810C88) was used. […]

Guide cases for IC50, answers given:
- Compound: "Cc1cccc(-c2ccn(-c3nc(N4CCOCC4)nc4c3ncn4-c3ccccc3)n2)c1 [Example 136]"
  Outcome measure: "IC50"
  Endpoint result: "≤ 10 nM"
- Compound: "Cc1cccc(/C=N/Nc2nc(N3CCOCC3)nc3c2ncn3-c2cccc(Cl)c2)c1 [Example 122]"
  Outcome measure: "IC50"
  Endpoint result: "≤ 10 nM"
- Compound: "Cc1ccc(-n2cnc3c(N/N=C/c4cccc(C)c4)nc(N4CCOCC4)nc32)nc1 [Example 143]"
  Outcome measure: "IC50"
  Endpoint result: "≤ 10 nM"
- Compound: "COc1ccc(C(=O)Cn2cnc3c(N/N=C/c4cccc(C)c4)nc(N4CCOCC4)nc32)cc1 [Example 39]"
  Outcome measure: "IC50"
  Endpoint result: "10 to 20 nM"

Q. Would you kindly share the measured IC50 for Cc1cccc(/C=N/Nc2nc(N3CCOC[C@@H]3C)nc3c2ncn3-c2cccnc2)c1 [Example 97] ?
A. 10 to 20 nM

====

- Target of assay: PIKFYVE (Homo sapiens, UniProt Q9Y2I7)
- Sequence (Q9Y2I7 whole entry): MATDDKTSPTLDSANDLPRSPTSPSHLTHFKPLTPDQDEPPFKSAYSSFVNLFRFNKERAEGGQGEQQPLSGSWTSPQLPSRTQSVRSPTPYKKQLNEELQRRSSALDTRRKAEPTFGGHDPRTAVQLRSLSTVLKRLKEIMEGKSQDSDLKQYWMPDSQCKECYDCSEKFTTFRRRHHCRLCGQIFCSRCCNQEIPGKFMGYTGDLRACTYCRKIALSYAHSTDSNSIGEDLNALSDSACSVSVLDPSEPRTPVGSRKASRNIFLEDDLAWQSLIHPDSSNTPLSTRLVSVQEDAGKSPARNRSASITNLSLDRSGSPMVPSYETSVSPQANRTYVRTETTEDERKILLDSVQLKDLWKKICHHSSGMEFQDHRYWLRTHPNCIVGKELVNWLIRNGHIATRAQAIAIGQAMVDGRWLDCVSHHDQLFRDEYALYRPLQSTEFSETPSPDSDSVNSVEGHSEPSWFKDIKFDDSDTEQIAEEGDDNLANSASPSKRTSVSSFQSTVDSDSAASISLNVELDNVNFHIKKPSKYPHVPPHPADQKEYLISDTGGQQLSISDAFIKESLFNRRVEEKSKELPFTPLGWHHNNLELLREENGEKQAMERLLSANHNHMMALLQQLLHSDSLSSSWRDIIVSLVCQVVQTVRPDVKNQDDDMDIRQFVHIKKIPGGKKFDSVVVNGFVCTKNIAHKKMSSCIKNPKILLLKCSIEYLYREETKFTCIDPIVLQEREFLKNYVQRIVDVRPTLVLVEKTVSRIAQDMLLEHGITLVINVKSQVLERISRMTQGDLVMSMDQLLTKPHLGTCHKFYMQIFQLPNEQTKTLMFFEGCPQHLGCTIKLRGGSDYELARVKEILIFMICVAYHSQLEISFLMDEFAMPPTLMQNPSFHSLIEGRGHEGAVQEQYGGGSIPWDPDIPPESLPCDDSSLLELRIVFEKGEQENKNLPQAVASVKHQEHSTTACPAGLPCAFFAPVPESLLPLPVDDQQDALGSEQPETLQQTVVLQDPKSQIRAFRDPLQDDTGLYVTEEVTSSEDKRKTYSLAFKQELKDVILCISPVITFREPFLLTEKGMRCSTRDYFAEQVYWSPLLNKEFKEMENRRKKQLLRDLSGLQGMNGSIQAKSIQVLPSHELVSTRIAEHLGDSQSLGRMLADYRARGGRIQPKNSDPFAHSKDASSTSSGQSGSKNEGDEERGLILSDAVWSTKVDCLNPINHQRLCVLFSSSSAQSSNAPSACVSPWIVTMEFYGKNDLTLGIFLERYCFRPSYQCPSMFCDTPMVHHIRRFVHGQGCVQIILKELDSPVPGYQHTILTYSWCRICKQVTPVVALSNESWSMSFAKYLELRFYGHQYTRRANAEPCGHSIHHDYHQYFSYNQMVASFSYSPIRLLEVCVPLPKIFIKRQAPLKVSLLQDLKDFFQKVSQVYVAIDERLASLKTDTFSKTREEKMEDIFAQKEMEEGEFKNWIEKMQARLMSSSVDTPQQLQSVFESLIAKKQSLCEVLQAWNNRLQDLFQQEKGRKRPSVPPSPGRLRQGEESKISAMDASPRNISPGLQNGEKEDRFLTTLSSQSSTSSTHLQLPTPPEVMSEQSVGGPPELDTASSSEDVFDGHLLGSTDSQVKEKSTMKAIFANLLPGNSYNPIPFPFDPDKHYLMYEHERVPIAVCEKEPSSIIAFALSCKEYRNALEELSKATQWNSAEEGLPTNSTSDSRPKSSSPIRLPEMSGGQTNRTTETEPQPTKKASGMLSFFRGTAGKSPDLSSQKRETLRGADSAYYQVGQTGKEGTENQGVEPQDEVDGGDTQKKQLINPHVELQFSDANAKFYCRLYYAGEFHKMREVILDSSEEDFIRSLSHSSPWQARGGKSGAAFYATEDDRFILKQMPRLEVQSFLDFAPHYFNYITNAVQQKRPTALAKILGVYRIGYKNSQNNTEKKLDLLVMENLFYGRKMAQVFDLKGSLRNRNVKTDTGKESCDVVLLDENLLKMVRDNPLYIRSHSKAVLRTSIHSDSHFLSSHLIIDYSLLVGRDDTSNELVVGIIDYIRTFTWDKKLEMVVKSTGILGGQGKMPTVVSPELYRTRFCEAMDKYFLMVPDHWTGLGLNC
- Procedure summary: NanoBRET TE Intracellular Kinase Assay, interaction of PIKFYVE and compounds in HEK293 cells
- Condition details: IC50 class from BRET; HEK293 cells expressing PIKFYVE-NanoLuc; 2 hours incubation
pIC50: −log10 of the molar value.
Outcome measure: pIC50

Guide cases for pIC50, answers given:
- Compound: "Cc1cccc(/C=N/Nc2nc(N3CCOCC3)nc3c2ncn3-c2ccnc(Cl)c2)c1 [Example 115]"
  Target of assay: "PIKFYVE (Homo sapiens, UniProt Q9Y2I7)"
  pIC50: "≥ 8.00"
- Compound: "Cc1cccc(/C=N/Nc2nc(N3CCOCC3)nc3c2ncn3-c2ccc(Cl)cn2)c1 [Example 116]"
  Target of assay: "PIKFYVE (Homo sapiens, UniProt Q9Y2I7)"
  pIC50: "≥ 8.00"
- Compound: "Cc1cccc(/C=N/Nc2nc(N3CCOCC3)nc3c2ncn3C2CCN(C(=O)c3cccnc3)CC2)c1 [Example 87]"
  Target of assay: "PIKFYVE (Homo sapiens, UniProt Q9Y2I7)"
  pIC50: "7.70 to 8.00"
- Compound: "Cc1cccc(/C=N/Nc2nc(N3CCOCC3)nc3c2nc(C)n3-c2ccccc2)c1 [Example 165]"
  Target of assay: "PIKFYVE (Homo sapiens, UniProt Q9Y2I7)"
  pIC50: "7.70 to 8.00"
- Compound: "Cc1cccc(/C=N/Nc2nc(N3CCOCC3)nc3c2ncn3CC(=O)c2ccc(C(F)(F)F)cc2)c1 [Example 45]"
  Target of assay: "PIKFYVE (Homo sapiens, UniProt Q9Y2I7)"
  pIC50: "7.52 to 7.70"
- Compound: "Cc1cccc(/C=N/Nc2nc(N3CCOCC3)nc3c2ncn3CC(F)(F)c2ccccn2)c1 [Example 26]"
  Target of assay: "PIKFYVE (Homo sapiens, UniProt Q9Y2I7)"
  pIC50: "7.70 to 8.00"
- Compound: "Cc1cccc(/C=N/Nc2nc(N3CCOCC3)nc3c2ncn3-c2cccnc2C)c1 [Example 109]"
  Target of assay: "PIKFYVE (Homo sapiens, UniProt Q9Y2I7)"
  pIC50: "7.70 to 8.00"
- Compound: "Cc1cccc(/C=N/Nc2nc(N3CCOCC3)nc3c2ncn3CC(C)C)c1 [Example 17]"
  Target of assay: "PIKFYVE (Homo sapiens, UniProt Q9Y2I7)"
  pIC50: "7.70 to 8.00"

Q. Entry Cc1cccc(/C=N/Nc2nc(N3CCOCC3)nc3c2ncn3CCc2ccccc2)c1 [Example 18] , system PIKFYVE (Homo sapiens, UniProt Q9Y2I7): what pIC50 was measured?
A. ≥ 8.00

Q. Entry Cc1cccc(/C=N/Nc2nc(N3CCOCC3)nc3c2ncn3-c2cc(C)ns2)c1 [Example 148] , system PIKFYVE (Homo sapiens, UniProt Q9Y2I7): what pIC50 was measured?
A. ≥ 8.00

Q. Entry Cc1cccc(/C=N/Nc2nc(N3CCOCC3)nc3c2ncn3CC(=O)c2ccc(Cl)cc2)c1 [Example 25] , system PIKFYVE (Homo sapiens, UniProt Q9Y2I7): what pIC50 was measured?
A. 7.70 to 8.00

====

- Target of assay: human GST-PIKFYVE (Homo sapiens)
- Construct: GST; purchased Carna biosciences 11-118
- Sequence (Q9Y2I7 whole entry): as above
- Procedure summary: ADP-Glo kinase assay, enzyme inhibition activity against human PIKFYVE (Carna biosciences)
- Format: biochemical
- Condition details: inhibitory activity at final compound concentration 10 nM; 1 hour at room temperature
Outcome measure: ADP-Glo kinase assay (%, 10 nM) (%)

- Smiles data: "COc1ccc(-c2cccc3c(N/N=C/c4cccc(C)c4)nc(N4CCOCC4)nc23)cc1"
  ADP-Glo kinase assay (%, 10 nM) (%): 68.30
- Smiles data: "Cc1cccc(/C=N/n2c(C)nc3c(OCCc4ccccn4)nc(N4CCOCC4)nc32)c1"
  ADP-Glo kinase assay (%, 10 nM) (%): 71.38
- Smiles data: "Cc1cccc(/C=N/n2c(C)nc3c(Nc4ccccc4)nc(N4CCOCC4)nc32)c1"
  ADP-Glo kinase assay (%, 10 nM) (%): 53.87
- Smiles data: "Cc1cccc(/C=N/Nc2nc(N3CCOCC3)nc3c2ncn3C2CCN(S(C)(=O)=O)CC2)c1"
  ADP-Glo kinase assay (%, 10 nM) (%): 61.82
- Smiles data: "Cc1cccc(/C=N/Nc2nc(N3CCOCC3)nc3c2ncn3CC(=O)c2ccc[nH]2)c1"
  ADP-Glo kinase assay (%, 10 nM) (%): 74.72
- Smiles data: "Cc1cccc(/C=N/n2cnc3c(Nc4ccnc(Cl)c4)nc(N4CCOCC4)nc32)c1"
  ADP-Glo kinase assay (%, 10 nM) (%): 64.35
- Smiles data: "Cc1cccc(/C=N/Nc2nc(N3CCOCC3)nc3c2ncn3-c2cccc(Cl)c2)c1"
  ADP-Glo kinase assay (%, 10 nM) (%): 87.32
- Smiles data: "Cc1cccc(/C=N/Nc2nc(N3CCOCC3)nc3c2nc(C)n3CC(=O)c2cccnc2)c1"
  ADP-Glo kinase assay (%, 10 nM) (%): 63.93
